These measurements were taken from the supplement of paper PMC10733146.

# Test system: primary AML patient cells (S017)
# ASSAY EXPLANATION: viability relative to DMSO control (fraction); higher = less drug effect (more viable cells)
# RUN PARAMETERS: 3 µM; 48 h
# viability per record follows

Check out these entries, answers already filled in.
CNC(=O)c1cc(Oc2ccc(NC(=O)Nc3ccc(Cl)c(C(F)(F)F)c3)cc2)ccn1 [Sorafenib] ... 1.04
Oc1ccc(/C=C/c2cc(O)cc(O)c2)cc1 [Resveratrol] ... 0.883
Nc1ncn([C@H]2C[C@H](O)[C@@H](CO)O2)c(=O)n1 [Decitabine (Dacogen)] ... 0.918

State its viability: Nc1nc(Cl)nc2c1ncn2[C@@H]1O[C@H](CO)[C@@H](O)[C@@H]1F [Clofarabine]
0.3

State its viability: O=C(Nc1cccc(C(F)(F)F)c1)Nc1cc(S(=O)(=O)NC2CC2)ccc1-c1ccsc1 [AGI-6780]
0.908

State its viability: C[C@@H](Oc1cc(-c2cnn(C3CCNCC3)c2)cnc1N)c1c(Cl)ccc(F)c1Cl [Crizotinib]
0.636

State its viability: O=C(c1cc(Cc2n[nH]c(=O)c3ccccc23)ccc1F)N1CCN(C(=O)C2CC2)CC1 [Olaparib]
0.94

----------
# Test system: primary AML patient cells (S060)
# ASSAY EXPLANATION: viability relative to DMSO control (fraction); higher = less drug effect (more viable cells)
# RUN PARAMETERS: 0.024 µM; 48 h
// returns 0.0 unless viability is strictly below 1, in which case 1.0

N#Cc1ccnc(N2C(=O)CC[C@H]2C(=O)N(c2cncc(F)c2)[C@H](C(=O)NC2CC(F)(F)C2)c2ccccc2Cl)c1 ... 0.0
CNC(=O)c1cc(Oc2ccc(NC(=O)Nc3ccc(Cl)c(C(F)(F)F)c3)cc2)ccn1 ... 1.0
C[C@@H](Oc1cc(-c2cnn(C3CCNCC3)c2)cnc1N)c1c(Cl)ccc(F)c1Cl ... 1.0

hey, is viability for `CCN1CCN(Cc2ccc(Nc3ncc(F)c(-c4cc(F)c5nc(C)n(C(C)C)c5c4)n3)nc2)CC1` lower than 1 or not?
0.0

----------
# viability per record follows
# System: primary AML patient cells (S021)
# ASSAY EXPLANATION: viability relative to DMSO control (fraction); higher = less drug effect (more viable cells)
# RUN PARAMETERS: 0.6 µM; 48 h

N#CC[C@H](C1CCCC1)n1cc(-c2ncnc3[nH]ccc23)cn1 ... 0.844

State viability (primary AML patient cells (S021)) of `CCc1nc(C(N)=O)c(Nc2ccc(N3CCC(N4CCN(C)CC4)CC3)c(OC)c2)nc1NC1CCOCC1` .
0.72

State viability (primary AML patient cells (S021)) of `O=C(O)CSc1cc(NS(=O)(=O)c2ccc(Br)cc2)c2ccccc2c1O` .
0.971

State viability (primary AML patient cells (S021)) of `Nc1ncn([C@H]2C[C@H](O)[C@@H](CO)O2)c(=O)n1` .
1.03

----------
# System: primary FL patient cells (S022)
# ASSAY EXPLANATION: viability relative to DMSO control (fraction); higher = less drug effect (more viable cells)
# RUN PARAMETERS: 3 µM; 48 h
# viability per record follows
The answer should be written as a number, with no unit following it.

CS(=O)(=O)c1ccc(C(=O)Nc2ccc(Cl)c(-c3ccccn3)c2)c(Cl)c1 ... 0.911

State viability (primary FL patient cells (S022)) of `Nc1nc(=S)c2[nH]cnc2[nH]1` .
0.622

State viability (primary FL patient cells (S022)) of `C[C@@H](Oc1cc(-c2cnn(C3CCNCC3)c2)cnc1N)c1c(Cl)ccc(F)c1Cl` .
0.959

State viability (primary FL patient cells (S022)) of `CNC(=O)c1cc(Oc2ccc(NC(=O)Nc3ccc(Cl)c(C(F)(F)F)c3)cc2)ccn1` .
0.999
